- assayContext: human gut metagenome, 24 h, 2 µM; further: call rule not given here
measurementType: Bacterial Biotransformation

Previously resolved entries follow.
>  <compound>
COc1ccc(Cc2nccc3cc(OC)c(OC)cc23)cc1OC

>  <Bacterial Biotransformation>
Compound metabolized

$$$$
>  <compound>
CN(C)C(=O)Oc1cccc([N+](C)(C)C)c1.[Br-] [NEOSTIGMINE BROMIDE]

>  <Bacterial Biotransformation>
Compound NOT metabolized

$$$$
>  <compound>
O=C(O)c1cc(/N=N/c2ccc(S(=O)(=O)Nc3ccccn3)cc2)ccc1O

>  <Bacterial Biotransformation>
Compound metabolized

$$$$
>  <compound>
OC(c1cc(C(F)(F)F)nc2c(C(F)(F)F)cccc12)C1CCCCN1 (stereo not given)

>  <Bacterial Biotransformation>
Compound metabolized

$$$$
>  <compound>
CC1=C(CC(=O)O)c2cc(F)ccc2/C1=C\c1ccc([S+](C)[O-])cc1 (stereo not given)

>  <Bacterial Biotransformation>
Compound metabolized

$$$$

Then this compound:
The measured Bacterial Biotransformation associated with "CC(C)c1nc(N(C)S(C)(=O)=O)nc(-c2ccc(F)cc2)c1/C=C/[C@@H](O)C[C@@H](O)CC(=O)[O-].CC(C)c1nc(N(C)S(C)(=O)=O)nc(-c2ccc(F)cc2)c1/C=C/[C@@H](O)C[C@@H](O)CC(=O)[O-].[Ca+2]" reads Compound metabolized

----------
- protocolText: The drug is tested on Z-016 corresponding to mouse gut metagenome with ENA study accession number: PRJEB37062 and ENA sample accession number: ERS12561815 for biotransformation under anaerobic condition. The drug concentrations were measured over 9 timepoints collected between 0 and 24 hours of incubation by liquid-chromatography-coupled mass spectrometry (LC–MS)
- assayContext: 2 µM
measurementType: Bacterial Biotransformation

>  <compound>
CCN(CC)CCNC(=O)c1cc(S(C)(=O)=O)ccc1OC [TIAPRIDE]

>  <reported>
Compound NOT metabolized

$$$$
>  <compound>
CC(=O)OCC(=O)NCCCOc1cccc(CN2CCCCC2)c1 [ROXATIDINE ACETATE]

>  <reported>
Compound metabolized

$$$$
>  <compound>
O=C(NC(Cc1cc(=O)[nH]c2ccccc12)C(=O)O)c1ccc(Cl)cc1 (stereo not given) [REBAMIPIDE]

>  <reported>
Compound NOT metabolized

$$$$
>  <compound>
COc1ccnc(C[S+]([O-])c2nc3ccc(OC(F)F)cc3[nH]2)c1OC (stereo not given) [PANTOPRAZOLE]

>  <reported>
Compound metabolized

$$$$

Then this compound:
The measured Bacterial Biotransformation associated with CC(C)(C)NCC(O)c1cc(Cl)c(N)c(Cl)c1 (stereo not given) [CLENBUTEROL] reads Compound NOT metabolized

----------
- protocolText: The drug is tested on WLS-039 corresponding to human gut metagenome with ENA study accession number: PRJEB37062 and ENA sample accession number: ERS12561746 for biotransformation under anaerobic condition. The drug concentrations were measured over 9 timepoints collected between 0 and 24 hours of incubation by liquid-chromatography-coupled mass spectrometry (LC–MS)
- assayContext: 2 µM
measurementType: Bacterial Biotransformation

Previously resolved entries follow.
>  <compound>
O=C([O-])C[C@H](O)C[C@H](O)/C=C/c1c(C2CC2)nc2ccccc2c1-c1ccc(F)cc1.O=C([O-])C[C@H](O)C[C@H](O)/C=C/c1c(C2CC2)nc2ccccc2c1-c1ccc(F)cc1.[Ca+2]

>  <reported>
Compound metabolized

$$$$
>  <compound>
CCOc1cc(CC(=O)N[C@@H](CC(C)C)c2ccccc2N2CCCCC2)ccc1C(=O)O [REPAGLINIDE]

>  <reported>
Compound metabolized

$$$$
>  <compound>
COc1ccc2c(c1)c(CC(=O)O)c(C)n2C(=O)c1ccc(Cl)cc1

>  <reported>
Compound metabolized

$$$$
>  <compound>
O=C(NC(Cc1cc(=O)[nH]c2ccccc12)C(=O)O)c1ccc(Cl)cc1 (stereo not given) [REBAMIPIDE]

>  <reported>
Compound NOT metabolized

$$$$
>  <compound>
CC(C)(C)NC[C@H](O)COc1nsnc1N1CCOCC1.O=C(O)/C=C\C(=O)O [TIMOLOL MALEATE]

>  <reported>
Compound NOT metabolized

$$$$

The measured Bacterial Biotransformation associated with COc1ccc(C(CN(C)C)C2(O)CCCCC2)cc1 (stereo not given) reads Compound NOT metabolized

The measured Bacterial Biotransformation associated with "CC[C@H](C)C(=O)O[C@H]1CCC=C2C=C[C@H](C)[C@H](CC[C@@H]3C[C@@H](O)CC(=O)O3)[C@H]21" reads Compound metabolized

The measured Bacterial Biotransformation associated with OC(c1cc(C(F)(F)F)nc2c(C(F)(F)F)cccc12)C1CCCCN1 (stereo not given) reads Compound metabolized

The measured Bacterial Biotransformation associated with CCN(CC)C(=O)C1(c2ccccc2)CC1CN (stereo not given) reads Compound NOT metabolized

The measured Bacterial Biotransformation associated with C=C[C@H]1CN2CC[C@H]1C[C@H]2[C@H](O)c1ccnc2ccc(OC)cc12.C=C[C@H]1CN2CC[C@H]1C[C@H]2[C@H](O)c1ccnc2ccc(OC)cc12.O.O.O=S(=O)(O)O [QUININE SULFATE] reads Compound NOT metabolized

The measured Bacterial Biotransformation associated with CC(=O)OCC(=O)[C@@]1(OC(C)=O)[C@@H](C)C[C@H]2[C@@H]3C[C@H](F)C4=CC(=O)C=C[C@]4(C)[C@@]3(F)[C@@H](O)C[C@@]21C [DIFLORASONE DIACETATE] reads Compound metabolized

The measured Bacterial Biotransformation associated with COC(=O)C(c1ccccc1)C1CCCCN1 (stereo not given) [METHYLPHENIDATE] reads Compound NOT metabolized

The measured Bacterial Biotransformation associated with "c1ccc2[nH]c(-c3cscn3)nc2c1" reads Compound NOT metabolized

The measured Bacterial Biotransformation associated with O=C1CN2Cc3c(ccc(Cl)c3Cl)N=C2N1 [ANAGRELIDE] reads Compound NOT metabolized

The measured Bacterial Biotransformation associated with "C[C@]12C=CC(=O)C=C1CC[C@@H]1[C@@H]2C(=O)C[C@@]2(C)[C@H]1CC[C@]2(O)C(=O)CO" reads Compound metabolized

----------
- protocolText: The drug is tested on WLS-310 corresponding to human gut metagenome with ENA study accession number: PRJEB37062 and ENA sample accession number: ERS12561785 for biotransformation under anaerobic condition. The drug concentrations were measured over 9 timepoints collected between 0 and 24 hours of incubation by liquid-chromatography-coupled mass spectrometry (LC–MS)
- assayContext: 2 µM
measurementType: Bacterial Biotransformation

Previously resolved entries follow.
>  <compound>
CN(C)CCc1c[nH]c2ccc(CS(=O)(=O)N3CCCC3)cc12

>  <reported>
Compound metabolized

$$$$
>  <compound>
CCN(C)C(=O)Oc1cccc([C@H](C)N(C)C)c1.O=C(O)C(O)C(O)C(=O)O [RIVASTIGMINE TARTRATE]

>  <reported>
Compound NOT metabolized

$$$$
>  <compound>
CC(C)(C)NC(=O)[C@H]1CC[C@H]2[C@@H]3CC[C@H]4NC(=O)C=C[C@]4(C)[C@H]3CC[C@]12C [FINASTERIDE]

>  <reported>
Compound metabolized

$$$$
>  <compound>
COc1cc2nc(N3CCN(C(=O)C4COc5ccccc5O4)CC3)nc(N)c2cc1OC.CS(=O)(=O)O (stereo not given) [DOXAZOSIN MESYLATE]

>  <reported>
Compound metabolized

$$$$
>  <compound>
COc1ccc2cc([C@H](C)C(=O)O)ccc2c1

>  <reported>
Compound metabolized

$$$$
>  <compound>
CCc1oc2ccccc2c1C(=O)c1cc(Br)c(O)c(Br)c1

>  <reported>
Compound metabolized

$$$$
>  <compound>
CN1[C@@H]2CC[C@H]1C[C@@H](OC(=O)[C@H](CO)c1ccccc1)C2

>  <reported>
Compound metabolized

$$$$
>  <compound>
COc1ccc(CN2CCNCC2)c(OC)c1OC.Cl.Cl [TRIMETAZIDINE DIHYDROCHLORIDE]

>  <reported>
Compound NOT metabolized

$$$$
>  <compound>
CCCN1C[C@H](CSC)C[C@@H]2c3cccc4[nH]cc(c34)C[C@H]21.CS(=O)(=O)O [PERGOLIDE MESYLATE]

>  <reported>
Compound NOT metabolized

$$$$
>  <compound>
OCCN(CCO)c1nc(N2CCCCC2)c2nc(N(CCO)CCO)nc(N3CCCCC3)c2n1

>  <reported>
Compound metabolized

$$$$

Then this compound:
The measured Bacterial Biotransformation associated with "CN[C@H]1CC[C@@H](c2ccc(Cl)c(Cl)c2)c2ccccc21" reads Compound metabolized

----------
- assayContext: human gut metagenome, 24 h, 2 µM
measurementType: Bacterial Biotransformation

Previously resolved entries follow.
>  <compound>
CC1=C(CC(=O)O)c2cc(F)ccc2/C1=C\c1ccc([S+](C)[O-])cc1 (configuration not stated)

>  <Bacterial Biotransformation>
Compound metabolized

$$$$
>  <compound>
CCOC(=O)[C@H](CCc1ccccc1)N[C@@H](C)C(=O)N1Cc2ccccc2C[C@H]1C(=O)O

>  <Bacterial Biotransformation>
Compound metabolized

$$$$
>  <compound>
CNCC[C@H](Oc1cccc2ccccc12)c1cccs1 [DULOXETINE]

>  <Bacterial Biotransformation>
Compound metabolized

$$$$
>  <compound>
CN(CCOc1ccc(CC2SC(=O)NC2=O)cc1)c1ccccn1.O=C(O)/C=C\C(=O)O (configuration not stated) [ROSIGLITAZONE MALEATE]

>  <Bacterial Biotransformation>
Compound metabolized

$$$$
>  <compound>
CNNCc1ccc(C(=O)NC(C)C)cc1 [PROCARBAZINE]

>  <Bacterial Biotransformation>
Compound metabolized

$$$$

The measured Bacterial Biotransformation associated with c1ccc2[nH]c(-c3cscn3)nc2c1 [THIABENDAZOLE] reads Compound metabolized

The measured Bacterial Biotransformation associated with CC(CCc1ccccc1)NCC(O)c1ccc(O)c(C(N)=O)c1 (configuration not stated) [LABETALOL] reads Compound NOT metabolized

The measured Bacterial Biotransformation associated with O=C(CCCN1CCC2(CC1)C(=O)NCN2c1ccccc1)c1ccc(F)cc1 [SPIPERONE] reads Compound metabolized
